Tested on: Botrytis cinerea (B05.10)
Assay: Resazurin antifungal assay of 180 alpha-factor peptide variants towards Botrytis (Example 2)
Assay type: cell-based
Conditions: % inhibition of fungal growth, Botrytis conidia, peptide 20 μM, resazurin
Procedure: The antifungal activity of 180 alpha-factor peptide variants towards Botrytis was tested. Experimental design: […] Fungal conidia were harvested by scraping a Botrytis plate flooded with 1 ml water with 0.1% Tween 80 solution. […] The conidia concentration of the resulting solution was counted using a hemocytometer. […] Peptides were tested for activity against Botrytis, using the resazurin assay. […] Fluorescence was measured at 570/620 nm after 4 h of incubation with resazurin. […]
Peptide text beside a SMILES is read from it.
parameter: Inhibition at 20 μM (%)
Could you give me the number in %? Just the number is fine.

**Q:** Record request: Inhibition at 20 μM value, item CSCC[C@H](NC(=O)[C@@H]1CCCN1C(=O)[C@H](CCC(N)=O)NC(=O)CNC(=O)[C@@H]1CCCN1C(=O)[C@H](CCCCN)NC(=O)[C@H](Cc1ccccc1)NC(=O)[C@H](CCCNC(=N)N)NC(=O)[C@H](CC(C)C)NC(=O)[C@@H](NC(=O)[C@H](Cc1c[nH]cn1)NC(=O)[C@@H](N)CCCCN)C(C)C)C(=O)N[C@@H](Cc1ccc(O)cc1)C(=O)O [compound 12] (H-KHVLRFKPGQPMY-OH; N-terminus and C-terminus assumed)
**A:** 99.94

* * *

For each record, write down the corresponding Inhibition at 20 μM.
test system: Botrytis cinerea (B05.10); assay: Resazurin antifungal assay of 180 alpha-factor peptide variants towards Botrytis (Example 2); format: cell-based; conditions: % inhibition of fungal growth, Botrytis conidia, peptide 20 μM, resazurin
Peptide text beside a SMILES is read from it.

**Q:** Record request: Inhibition at 20 μM value, item CC[C@H](C)[C@H](NC(=O)CNC(=O)[C@H](CCCNC(=N)N)NC(=O)[C@@H](N)CCCCN)C(=O)N[C@@H](CC(N)=O)C(=O)N[C@@H](CC(C)C)C(=O)N[C@@H](CCCCN)C(=O)N1CCC[C@H]1C(=O)NCC(=O)N[C@@H](CCC(N)=O)C(=O)N1CCC[C@H]1C(=O)N[C@@H](CCSC)C(=O)N[C@@H](Cc1ccc(O)cc1)C(=O)O [compound 104] (H-KRGINLKPGQPMY-OH; N-terminus and C-terminus assumed)
**A:** <90%

**Q:** Record request: Inhibition at 20 μM value, item CC[C@H](C)[C@H](NC(=O)[C@H](CCC(N)=O)NC(=O)[C@H](CC(C)C)NC(=O)[C@H](Cc1ccccc1)NC(=O)[C@H](Cc1c[nH]cn1)NC(=O)[C@@H](N)Cc1c[nH]c2ccccc12)C(=O)N[C@@H](CCCCN)C(=O)N1CCC[C@H]1C(=O)NCC(=O)N[C@@H](CCC(N)=O)C(=O)NCC(=O)N[C@@H](CCSC)C(=O)N[C@@H](Cc1ccc(O)cc1)C(=O)O [compound 90] (H-WHFLQIKPGQGMY-OH; N-terminus and C-terminus assumed)
**A:** <90%

**Q:** Record request: Inhibition at 20 μM value, item CSCC[C@H](NC(=O)[C@H](CO)NC(=O)[C@H](C)NC(=O)CNC(=O)[C@@H]1CCCN1C(=O)[C@H](CCCCN)NC(=O)[C@H](CC(C)C)NC(=O)[C@H](CCCNC(=N)N)NC(=O)[C@H](CC(C)C)NC(=O)[C@H](Cc1c[nH]c2ccccc12)NC(=O)[C@H](Cc1c[nH]cn1)NC(=O)[C@@H](N)Cc1c[nH]c2ccccc12)C(=O)N[C@@H](Cc1ccc(O)cc1)C(=O)O [compound 76] (H-WHWLRLKPGASMY-OH; N-terminus and C-terminus assumed)
**A:** 97.59%

Ref: patent US20250382332A1
